Every entry's value here was drawn from PubChem BioAssay AID1996.

Entries and their measured solubility kinetic follow.
# recorded conditions: buffer; pH 7.4; 200.0 µM
Note: unit µg/mL is implicit; provide only the numeric part.

Would you please look over these solved cases?
molecule	solubility kinetic (µg/mL)
O=C(Nc1cc(C(F)(F)F)ccc1Cl)c1cccnc1	32.7
O=[N+]([O-])c1cccc(S(=O)(=O)NC2CC3CCC2C3)c1 (centres undefined)	42.8
COc1cc(C(=O)OC(C)C(=O)Nc2ccc3c(c2)OCCO3)cc(OC)c1OC (centres undefined)	7.2
COc1cc(NS(=O)(=O)c2cc(C(=O)NCCc3ccccn3)ccc2OC)cc(OC)c1	66.4
Cc1cc(C)c(C)c(S(=O)(=O)N2CCN(C(=O)c3ccco3)CC2)c1C	4.1

[Q] I have this molecule here, CSc1ncccc1C(=O)OCC(=O)NCCCc1ccccc1 , and I need its recorded solubility kinetic.
[A] 20.6

[Q] Then what about the molecule O=C(Nc1cccnc1)c1ccc2ccccc2c1O ?
[A] 36.9

[Q] Follow-up entry: Cc1cc(C)c(C)c(S(=O)(=O)Nc2cccnc2)c1C
[A] 3.6

[Q] Another: Cc1cccc(C(=O)N=c2sccn2C)c1[N+](=O)[O-]
[A] 17.3

[Q] Please do the same for COc1ccc(CN(C(C)=O)c2ccccc2C(=O)O)cc1 as well.
[A] 43.7

[Q] Do the same for CC(=O)c1c(Nc2cccc(F)c2)oc(C)cc1=O please
[A] 31.3

====

# recorded conditions: buffer; pH 7.4; 200.0 µM
reported property: solubility kinetic

compound	solubility kinetic
CC(=O)c1cccc(OCC(=O)N(C)CC(=O)NCc2ccco2)c1	> 51.7 µg/mL

[Q] What measured solubility kinetic goes with CCCN(CC(=O)Nc1ccccc1OC)C(=O)c1nc2nc(C)ccn2n1 ?
[A] > 57.4 µg/mL

[Q] Please answer likewise for CN(C)C(CNC(=O)c1cc2ccccc2o1)c1ccco1 (stereo not drawn)
[A] > 44.8 µg/mL

====

# recorded conditions: buffer; pH 7.4; 200.0 µM
Consider the following compounds and their measured solubility kinetic readings.

Example cases with answers are listed next.
compound	solubility kinetic
Cc1ccc(NC(=O)C2CCN(C(=O)c3ccco3)CC2)cc1	> 46.9 µg/mL
O=S(=O)(NC(=S)c1ccccc1)c1ccc(F)cc1	> 44.3 µg/mL
CCOC(=O)C1CCN(Cc2ccc(Cl)nc2)CC1	> 42.4 µg/mL
Cc1cc(=O)[nH]c(N2CCCNCC2)n1	> 31.2 µg/mL

Continue with the compound presented below.
[Q] Look up solubility kinetic: CCC(NC(=O)c1ccccc1Br)c1ccccc1 (stereo not given)
[A] > 47.7 µg/mL

====

# recorded conditions: buffer; pH 7.4; 200.0 µM
reported property: solubility kinetic

Worked examples follow.
compound	solubility kinetic
COc1ccc2c(c1OC)C(=O)N1C2SC(C)(C)[C@H]1C(=O)NC1CC1 (stereo not given in full)	> 54.4 µg/mL
O=C(Cn1cncn1)NCCCc1ccccc1	> 36.6 µg/mL
COc1ccc(Cl)cc1NC(=O)/C=C/C(=O)O	> 38.3 µg/mL
CC(C)C(=O)O/N=C1\CCS(=O)(=O)c2sccc21	> 43.1 µg/mL

Next, consider the following compound.
[Q] Report solubility kinetic for O=C(NCc1cnn(-c2ccccc2)c1)C1CCC(=O)N(C2CC2)C1 (stereo not given) please.
[A] > 50.8 µg/mL

====

# recorded conditions: buffer; pH 7.4; 200.0 µM
Record condition met whenever solubility kinetic is at 6 µg/mL or higher; record condition not met when lower.

compound	class
O=C(NC(=S)Nc1cc([N+](=O)[O-])ccc1O)C1CC1	condition met
CCC(=O)c1cn(CC(=O)Nc2ccc(C)cc2)c2ccccc12	condition not met

[Q] Check the entry CCN1C(=O)c2cccc3c(Cl)ccc(c23)C1=O : does solubility kinetic equal or exceed 6 µg/mL?
[A] condition not met

[Q] Repeat with Cc1cnc(=O)[nH]c1SCc1ccc(C(F)(F)F)cc1
[A] condition not met

[Q] Next entry: COc1ccc(-c2nc(C)ncc2-c2ccccc2)c(O)c1
[A] condition met

[Q] Now give it for O=C(NCCOc1ccccc1)C(=O)c1c[nH]c2ccccc12 too.
[A] condition not met
